Test: Approximate solubility (aliquots of solvent, visual inspection)
Format: physicochemical
Settings: Water; salts of (S)-4′-(OH)-DADFT-PE (Table 16)
Experimental: Weighed samples were treated with aliquots of test solvents at room temperature. Samples were typically sonicated between additions to facilitate dissolution. Complete dissolution of the test material in each solvent was determined by visual inspection. Solubility was estimated based on the total volume of solvent used to provide complete dissolution. The actual solubility may be greater than the value calculated due to the incremental addition of solvent and kinetics of dissolution of the material. […]
# solubility values compiled below
Endpoint: solubility (mg/mL)

COCCOCCOCCOc1ccc(C2=N[C@@](C)(C(=O)O)CS2)c(O)c1 [Magnesium A]; 60
COCCOCCOCCOc1ccc(C2=N[C@@](C)(C(=O)O)CS2)c(O)c1 [NMG A]; 60

----------
experiment: Approximate solubility (aliquots of solvent, visual inspection); type: physicochemical; details: water, thermodynamic from solid, Water; salts of (S)-3′-(OH)-DADFT-PE (Table 14); read-out: Approximate Solubility
Where a name gives a salt, the structure may show the parent alone.
Endpoint: solubility

COCCOCCOCCOc1cccc(C2=N[C@@](C)(C(=O)O)CS2)c1O [Magnesium salt of (S)-3′-(OH)-DADFT-PE]; ≥ 48 mg/mL

----------
test: Moisture sorption/desorption (DVS) analysis; type: physicochemical; settings: from DVS data
Endpoint: hygroscopicity (in words)

COCCOCCOCCOc1cccc(C2=N[C@@](C)(C(=O)[O-])CS2)c1O.[K+] [potassium salt Form A]; extremely hygroscopic
COCCOCCOCCOc1cccc(C2=N[C@@](C)(C(=O)[O-])CS2)c1O.[K+] [potassium salt Form B]; extremely hygroscopic

// data source = patent US8829197B2
